- Test system: Trypanosoma brucei
- test.protocol: Antitrypanosomal activity against Trypanosoma brucei bloodstream form overexpressing nitroreductase assessed as growth inhibition after 3 days by Alamar blue assay
- Type: functional, organism-based
- condition: 72 h
property.measured: pIC50
pIC50 (log units): -log10 of the concentration in mol/L.

CC1CS(=O)(=O)CCN1/N=C/c1ccc([N+](=O)[O-])o1 (configuration not stated)	6.59

Asked: What measured pIC50 goes with NC(CCCNC(=O)OCc1ccc([N+](=O)[O-])cc1F)(C(=O)O)C(F)F (configuration not stated) ?
Given back: 4.40

====

- Tested on: Trypanosoma brucei
- test.protocol: Activity of His-tagged Trypanosoma brucei nitroreductase assessed as oxidation of NADH
Sorting guide: entries reporting Activity beneath 100 nmol/min/mg go in the criterion met pile, the rest go in the criterion not met pile.

Use these answered entries as a reference point.
NCCCC(NC(=O)OCc1ccc([N+](=O)[O-])cc1)(C(=O)O)C(F)F (stereo not given)	criterion met
O=C(NCCCC(NC(=O)OCc1ccc([N+](=O)[O-])cc1)(C(=O)O)C(F)F)OCc1ccc([N+](=O)[O-])cc1 (stereo not given)	criterion not met
CC1CS(=O)(=O)CCN1/N=C/c1ccc([N+](=O)[O-])o1 (stereo not given) [NIFURTIMOX]	criterion not met
NCCCC(N)(C(=O)OCc1ccc([N+](=O)[O-])cc1F)C(F)F (stereo not given)	criterion not met
NCCCC(N)(C(=O)OCc1ccc([N+](=O)[O-])cc1)C(F)F (stereo not given)	criterion met

Asked: # strict comparison: is reported Activity < 100 nmol/min/mg? input = NC(CCCNC(=O)OCc1ccc([N+](=O)[O-])cc1)(C(=O)O)C(F)F (stereo not given)
Given back: criterion met

Asked: I'd appreciate it if you could check whether O=C(NCCCC(NC(=O)OCc1ccc([N+](=O)[O-])cc1F)(C(=O)O)C(F)F)OCc1ccc([N+](=O)[O-])cc1F (stereo not given) has Activity smaller than 100 nmol/min/mg.
Given back: criterion not met

Asked: Below 100 nmol/min/mg on Activity? Entry NC(CCCNC(=O)OCc1ccc([N+](=O)[O-])cc1F)(C(=O)O)C(F)F (stereo not given)
Given back: criterion not met

Asked: Is Activity of NCCCC(N)(C(=O)O)C(F)F (stereo not given) [EFLORNITHINE] strictly below 100 nmol/min/mg?
Given back: criterion met

Asked: Given NCCCC(NC(=O)OCc1ccc([N+](=O)[O-])cc1F)(C(=O)O)C(F)F (stereo not given) , is recorded Activity strictly lower than 100 nmol/min/mg?
Given back: criterion not met
